Test system: SK-MEL-2
Assay: In vitro growth inhibition of SK-MEL-2, malignant melanoma.
Assay type: functional, cell-based
Conditions: Homo sapiens
readout kind: EC50

What measured EC50 is associated with "Br.CSc1ccc2c(cc1=O)[C@@H](N)CCc1cc(O)c(O)c(O)c1-2" on SK-MEL-2?
> 13.2 µg/mL

What measured EC50 is associated with "CSc1ccc2c(cc1=O)[C@@H](NC(=O)c1ccc([N+](=O)[O-])cc1)CCc1cc(OC(=O)C(C)C)c(OC(=O)C(C)C)c(OC(=O)C(C)C)c1-2" on SK-MEL-2?
27.6 µg/mL

What measured EC50 is associated with "CSc1ccc2c(cc1=O)[C@@H](NC(=O)c1cc(O)c(O)c(O)c1)CCc1cc(O)c(O)c(O)c1-2" on SK-MEL-2?
> 9.6 µg/mL

What measured EC50 is associated with "CSc1ccc2c(cc1=O)[C@@H](NC(=O)c1ccc([N+](=O)[O-])cc1)CCc1cc(O)c(O)c(O)c1-2" on SK-MEL-2?
> 9.6 µg/mL

What measured EC50 is associated with "CSc1ccc2c(cc1=O)[C@@H](NC(=O)c1ccc([N+](=O)[O-])cc1)CCc1cc(OC(C)=O)c(OC(C)=O)c(OC(C)=O)c1-2" on SK-MEL-2?
> 0.3 µg/mL
